Exercise: for every item that follows, state its recorded koff.
- STUDY_TARGET: T1, recombinant human DLL4 (C-terminally His-tagged extracellular domain, R&D Systems) (human, UniProt Q9NR61 25-522, biotinylated in the competition ELISA)
- T1 construct: also called rhDLL4; hDLL4
- T1 sequence (Q9NR61 25-522): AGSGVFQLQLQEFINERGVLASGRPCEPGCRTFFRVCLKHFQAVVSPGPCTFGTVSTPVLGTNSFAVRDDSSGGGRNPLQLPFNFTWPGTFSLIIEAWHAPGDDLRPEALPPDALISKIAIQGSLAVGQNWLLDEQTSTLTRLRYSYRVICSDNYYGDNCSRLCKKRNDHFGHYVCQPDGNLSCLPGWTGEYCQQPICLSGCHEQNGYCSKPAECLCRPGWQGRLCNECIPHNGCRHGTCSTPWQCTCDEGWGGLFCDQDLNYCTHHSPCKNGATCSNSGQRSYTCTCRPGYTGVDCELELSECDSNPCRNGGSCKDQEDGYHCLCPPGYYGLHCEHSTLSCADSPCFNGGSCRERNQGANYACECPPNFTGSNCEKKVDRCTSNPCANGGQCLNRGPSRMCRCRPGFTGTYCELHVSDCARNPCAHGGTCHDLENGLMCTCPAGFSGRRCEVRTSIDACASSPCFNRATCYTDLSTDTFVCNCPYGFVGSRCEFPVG
- RUN_DESCRIPTION: SPR (Biacore), recombinant human DLL4
Answer format: numeric, s⁻¹ implied, no suffix.

(Q) Name the reported koff value associated with the binder DLLBII036 (VHH, not shown: small tags and cut ends) VHH: EVQLVESGGGLVQPGGSLRLSCAASGFTFGSYDMSWVRRAPGKGPEWVSSISSGGGSTYYADYVKGRFTISRDNAKNTLYLQMNSLRPEDTAVYYCAADRYIWARQGEYWGAYEYDYWGQGTLVTVSS
(A) 0.00055

(Q) Name the reported koff value associated with the binder DLLBII021 (VHH, not shown: small tags and cut ends) VHH: EVQLVESGGGLVQPGGSLRLSCAASGFTFGSYDMSWVRRAPGKGPEWVSSINSGGGSTYYADYVKGRFTISRDNAKNTLYLQMNSLRPEDTAVYYCAADRYIWARQGEYWGAYEYDYWGQGTLVTVSS
(A) 0.00057

(Q) Name the reported koff value associated with the binder DLLBII020 (VHH, not shown: small tags and cut ends) VHH: EVQLVESGGGLVQPGGSLRLSCAASGFTFGSYDMSWVRQSPGKGPEWVSSINSGGGSTYYADYVKGRFTISRDNAKNTLYLQMNSLRPEDTAVYYCAADRYIWARQGEYWGAYEYDYWGQGTLVTVSS
(A) 0.0093

(Q) Name the reported koff value associated with the binder DLLBII136C07 (VHH, not shown: small tags and cut ends) VHH: EVQLVESGGGLVQPGGSLRLSCAASGFTFGSYDMSWVRRSPGKGPEWVSSINSGGGSTYYADYVKGRFTISRDNAKNTLYLQMNSLKPEDTAVYYCAADRYIWARQGEYWGAYEYDYWGQGTQVTVSS
(A) 0.00052

Data credit: patent US20140120095A1
